Assay Details: Cytotoxicity against L6 cells (Alamar Blue)
Format: cell-based, rat
Condition Notes: rat
Assay Metric: IC50 at 72 h (µg/mL)

Compound: CC(C)=CCC/C(C)=C/CC/C(C)=C/CC/C(C)=C/Cc1cc(CC(=O)O)ccc1O [Compound 8, 4-hydroxy-3-tetraprenylphenylacetic acid]
Value Relation Sign: >
Recorded Result: 90
//
Compound: COC(=O)/C(C)=C/CC/C(=C/CC/C(C)=C/CC/C(C)=C/CCc1ccoc1)C(=O)O [Compound 4, furospongin-4]
Value Relation Sign: >
Recorded Result: 90
//
Compound: CC(C)=CCC/C(C)=C/CC/C(C)=C/CC/C(C)=C/CC/C(C)=C/CC/C(C)=C/CC/C(C)=C/CC/C(C)=C/Cc1cc(C(=O)O)ccc1O [Compound 7, 4-hydroxy-3-octaprenylbenzoic acid]
Value Relation Sign: =
Recorded Result: 86.5
//
Compound: CC(C)=CCC/C(C)=C/CC/C(C)=C/CC/C(C)=C/CC/C(C)=C/CC/C(C)=C/CCC1(C)C=Cc2cc(O)ccc2O1 (stereo not drawn) [Compound 6, 2-(hexaprenylmethyl)-2-methylchromenol]
Value Relation Sign: >
Recorded Result: 90
//
Compound: CC(C)=CCC/C(C)=C/CC/C(C)=C/CC/C(C)=C/CC/C(C)=C/CCc1ccoc1 [Compound 2, furospinulosin-2]
Value Relation Sign: =
Recorded Result: 34
//
Compound: CC(C)=CCC/C(C)=C/CC/C(C)=C/CC/C(C)=C/CCc1ccoc1 [Compound 1, furospinulosin-1]
Value Relation Sign: >
Recorded Result: 90
//
Compound: CC(C)=CCC/C(C)=C/CC/C(C)=C/CC/C=C(\C)CC/C=C(\C)CCC=C(C)C [Compound 10, squalene]
Value Relation Sign: =
Recorded Result: 34.9
//
Compound: CC(=O)O[C@H]1CC2[C@@]3(C)CCCC(C)(C)C3CC[C@@]2(C)C2CC=C3CO[C@@H](O)C3[C@]21C (stereo partly drawn) [Compound 13, 12-epi-deoxoscalarin]
Value Relation Sign: =
Recorded Result: 60.3
//
Compound: C/C(=C\CCc1ccoc1)C[C@@H](O)C[C@@H](C)CCCc1ccoc1 [Compound 3, furospongin-1]
Value Relation Sign: =
Recorded Result: 27.4
//
Compound: OCCc1c[nH]c2ccccc12 [Compound 14, tryptophol]
Value Relation Sign: =
Recorded Result: 63.5
//
Compound: CC(=O)O[C@H]1C=C2C(=O)OCC2[C@@]2(C)C1[C@@]1(C)CCCC(C)(C)C1C[C@@H]2OC(C)=O (stereo partly drawn) [Compound 11, dorisenone D]
Value Relation Sign: =
Recorded Result: 3.93
//
Compound: CC(=O)O[C@H]1C=C2C(=O)OCC2[C@]2(C)CCC3C(C)(C)CCC[C@]3(C)C12 (stereo partly drawn) [Compound 12, 11β-acetoxyspongi-12-en-16-one]
Value Relation Sign: =
Recorded Result: 3.32

---

System: L. donovani strain MHOM/ET/67/L82
Assay Details: Activity against Leishmania donovani axenic amastigotes (Alamar Blue)
Type: cell-based
Condition Notes: Leishmania donovani; axenic amastigotes, MHOM/ET/67/L82, 72 h
Measured IC50, listed per entry for reference.
Assay Metric: IC50

Molecule: COC(=O)/C(C)=C/CC/C(=C/CC/C(C)=C/CC/C(C)=C/CCc1ccoc1)C(=O)O [Compound 4, furospongin-4]
Target Desc: L. donovani strain MHOM/ET/67/L82
Recorded Result: > 90 µg/mL
//
Molecule: CC(C)=CCC/C(C)=C/CC/C(C)=C/CC/C=C(\C)CC/C=C(\C)CCC=C(C)C [Compound 10, squalene]
Target Desc: L. donovani strain MHOM/ET/67/L82
Recorded Result: > 90 µg/mL
//
Molecule: C/C(=C\CCc1ccoc1)C[C@@H](O)C[C@@H](C)CCCc1ccoc1 [Compound 3, furospongin-1]
Target Desc: L. donovani strain MHOM/ET/67/L82
Recorded Result: 4.8 µg/mL
//
Molecule: CC(C)=CCC/C(C)=C/CC/C(C)=C/CC/C(C)=C/Cc1cc(CC(=O)O)ccc1O [Compound 8, 4-hydroxy-3-tetraprenylphenylacetic acid]
Target Desc: L. donovani strain MHOM/ET/67/L82
Recorded Result: > 90 µg/mL

---

System: L. donovani strain MHOM/ET/67/L82
Assay Details: Activity against Leishmania donovani axenic amastigotes (Alamar Blue)
Assay type: cell-based
Condition Notes: Leishmania donovani; axenic amastigotes, MHOM/ET/67/L82, 72 h
IC50 listing for selected compounds.

Compound: CC(=O)O[C@H]1C=C2C(=O)OCC2[C@@]2(C)C1[C@@]1(C)CCCC(C)(C)C1C[C@@H]2OC(C)=O (stereo partly drawn) [Compound 11, dorisenone D]
Value Relation Sign: >
IC50, µg/mL: 90
--
Compound: CC(C)=CCC/C(C)=C/CC/C(C)=C/CC/C(C)=C/CCc1ccoc1 [Compound 1, furospinulosin-1]
Value Relation Sign: =
IC50, µg/mL: 14.2
--
Compound: OCCc1c[nH]c2ccccc12 [Compound 14, tryptophol]
Value Relation Sign: =
IC50, µg/mL: 9.6
--
Compound: CC(=O)O[C@H]1CC2[C@@]3(C)CCCC(C)(C)C3CC[C@@]2(C)C2CC=C3CO[C@@H](O)C3[C@]21C (stereo partly drawn) [Compound 13, 12-epi-deoxoscalarin]
Value Relation Sign: >
IC50, µg/mL: 90
--
Compound: CC(C)=CCC/C(C)=C/CC/C(C)=C/CC/C(C)=C/CC/C(C)=C/CC/C(C)=C/CC/C(C)=C/CC/C(C)=C/Cc1cc(C(=O)O)ccc1O [Compound 7, 4-hydroxy-3-octaprenylbenzoic acid]
Value Relation Sign: =
IC50, µg/mL: 5.6
--
Compound: CC(C)=CCC/C(C)=C/CC/C(C)=C/CC/C(C)=C/CC/C(C)=C/CC/C(C)=C/CCC1(C)C=Cc2cc(O)ccc2O1 (stereo not drawn) [Compound 6, 2-(hexaprenylmethyl)-2-methylchromenol]
Value Relation Sign: =
IC50, µg/mL: 15.9

---

System: L. donovani strain MHOM/ET/67/L82
Assay Details: Activity against Leishmania donovani axenic amastigotes (Alamar Blue)
Format: cell-based
Condition Notes: Leishmania donovani; axenic amastigotes, MHOM/ET/67/L82, 72 h
IC50 overview

Compound: CC(C)=CCC/C(C)=C/CC/C(C)=C/CC/C(C)=C/CC/C(C)=C/CCc1ccoc1 [Compound 2, furospinulosin-2]
Target Desc: L. donovani strain MHOM/ET/67/L82
IC50: > 90 µg/mL
//
Compound: CC(=O)O[C@H]1C=C2C(=O)OCC2[C@]2(C)CCC3C(C)(C)CCC[C@]3(C)C12 (stereo partly drawn) [Compound 12, 11β-acetoxyspongi-12-en-16-one]
Target Desc: L. donovani strain MHOM/ET/67/L82
IC50: 0.75 µg/mL
//
Compound: CCCCCCCCCCCCCCCCOP(=O)([O-])OCC[N+](C)(C)C [miltefosine, reference compound]
Target Desc: L. donovani strain MHOM/ET/67/L82
IC50: 0.2 µg/mL
